molecular target: human muscarinic acetylcholine M3 receptor (Homo sapiens)
Sequence (P20309 whole entry): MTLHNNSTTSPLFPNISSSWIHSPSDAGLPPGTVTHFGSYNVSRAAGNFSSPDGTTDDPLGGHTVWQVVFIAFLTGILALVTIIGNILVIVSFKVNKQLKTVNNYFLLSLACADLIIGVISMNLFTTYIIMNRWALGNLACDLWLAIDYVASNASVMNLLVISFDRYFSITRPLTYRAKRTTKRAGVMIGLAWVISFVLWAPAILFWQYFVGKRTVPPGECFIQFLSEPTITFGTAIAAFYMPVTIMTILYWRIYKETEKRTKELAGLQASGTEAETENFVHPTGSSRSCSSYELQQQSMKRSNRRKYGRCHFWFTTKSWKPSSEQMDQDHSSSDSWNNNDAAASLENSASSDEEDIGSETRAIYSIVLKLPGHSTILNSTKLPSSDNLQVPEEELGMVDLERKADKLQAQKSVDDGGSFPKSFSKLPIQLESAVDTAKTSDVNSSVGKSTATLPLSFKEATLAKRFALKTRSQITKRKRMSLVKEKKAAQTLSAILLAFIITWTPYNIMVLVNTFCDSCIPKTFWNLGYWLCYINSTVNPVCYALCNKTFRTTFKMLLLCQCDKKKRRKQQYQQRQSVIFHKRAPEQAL
Structures can show the parent of a compound that is named as a salt.
Field: label. Allowed values: satisfied (IC50 < 1 nM) or not satisfied (IC50 >= 1 nM).

These recorded examples may help you get a feel for the data.
CC(C)c1nc(C(=O)N2CCOC3(CCN(Cc4cccc(CCOCCC(=O)N(C)CCNCCc5ccc(O)c6[nH]c(=O)sc56)c4F)CC3)C2)cs1 [Example 13, ditrifluoroacetate] ... satisfied
CC(C)c1nc(C(=O)N2CCOC3(CCN(Cc4cccc(CCOCCC(=O)N(CCNCCc5ccc(O)c6c5OCC(=O)N6)CCC(F)(F)F)c4F)CC3)C2)cs1 [Example 20, ditrifluoroacetate] ... satisfied
CCCCN(CCNCCc1ccc(O)c2c1OCC(=O)N2)C(=O)CCOCCc1ccccc1OCCN1CCC2(CC1)CN(C(=O)c1csc(C(C)C)n1)CCO2 [Example 178, trifluoroacetate salt] ... not satisfied
CC(C)c1nc(C(=O)N2CCOC3(CCN(CCOc4ccc(CCOCCC(=O)N(CCNCCc5ccc(O)c6c5OCC(=O)N6)C5CCCCC5)cc4)CC3)C2)cs1 [Example 51, ditrifluoroacetate] ... not satisfied
CCN(CCNCCc1ccc(O)c2[nH]c(=O)sc12)C(=O)CCOCCc1cccc(CN2CCC3(CC2)CN(C(=O)c2csc(C(C)C)n2)CCO3)c1OC [Example 68, ditrifluoroacetate] ... not satisfied
COCCCN(CCNCCc1ccc(O)c2c1OCC(=O)N2)C(=O)CCOCCc1cccc(CN2CCC3(CC2)CN(C(=O)c2csc(C(C)C)n2)CCO3)c1Cl [Example 71, ditrifluoroacetate] ... satisfied

Please indicate whether the reported IC50 of O=C1COc2c(CCNCCN(C(=O)CCOCCc3cccc(CN4CCC5(CC4)CN(C(=O)c4cc6ccccc6s4)CCO5)c3)C3CCCCC3)ccc(O)c2N1 [Example 81] is strictly below 1 nM.
not satisfied

Does this molecule meet the criterion IC50 < 1 nM? CCN(CCNCCc1ccc(O)c2[nH]c(=O)sc12)C(=O)CCOCCc1cc(CCN2CCC3(CC2)CN(C(=O)c2csc(C(C)C)n2)CCO3)cs1 [Example 78, ditrifluoroacetate]
not satisfied

API: query returns whether the molecule falls strictly under 1 nM in IC50. Query: CC(C)c1nc(C(=O)N2CCOC3(CCN(Cc4cccc(CCOCCC(=O)N(CCNCCc5ccc(O)c6c5OCC(=O)N6)[C@H](C)C(C)C)c4F)CC3)C2)cs1 [Example 12]
satisfied

# check: IC50 < 1 nM for CC[C@@H](C)N(CCNCCc1ccc(O)c2c1OCC(=O)N2)C(=O)CCOCCc1cccc(CCN2CCC3(CC2)CN(C(=O)c2csc(C(C)C)n2)CCO3)c1 [Example 37, ditrifluoroacetate]
satisfied

Say whether its IC50 is strictly beneath 1 nM. Entry: Cc1nc(C(=O)N2CCOC3(CCN(Cc4cccc(CCOCCC(=O)N(CCNCCc5ccc(O)c6[nH]c(=O)ccc56)C5CCCCC5)c4)CC3)C2)cs1 [Example 42, ditrifluoroacetate]
satisfied

Strictly below 1 nM in IC50? Cc1c(CCOCCC(=O)N(CCNCCc2ccc(O)c3c2OCC(=O)N3)C2CCCC2)cccc1CN1CCC2(CC1)CN(C(=O)c1csc(C(C)C)n1)CCO2 [Example 64, ditrifluoroacetate]
not satisfied

Does CCCCN(CCNCCc1ccc(O)c2c1OCC(=O)N2)C(=O)CCOCCc1cccc(CCN2CCC3(CC2)CN(C(=O)c2csc(C(C)C)n2)CCO3)c1 [Example 34a] have IC50 strictly under 1 nM?
satisfied

API: query returns whether the molecule falls strictly under 1 nM in IC50. Query: O=C1COc2c(CCNCCN(C(=O)CCOCCc3cccc(CN4CCC5(CC4)CN(C(=O)c4ccc6occc6c4)CCO5)c3)C3CCCCC3)ccc(O)c2N1 [Example 84]
satisfied
